B1: BEX1 (parent)
chain: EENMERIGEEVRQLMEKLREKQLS

Variants of: B1
Test: protein stability index of a GFP-peptide fusion (GPS, HEK-293T) (PSI 1-6); higher = more stable;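 note: lentivirally expressed fusions sorted by FACS into six bins by GFP to DsRed ratio, PSI derived from sequencing read proportions per bin multiplied by bin number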
Details: c terminus: a fixed tail appended
PROPERTY: protein stability index
Note: the reply should be a number with no unit written.

Sample answers from the record:
1. EENMERIGEPVRQLMEKLREKQLS | 4.75
2. EENMCRIGEEVRQLMEKLREKQLS | 3.74
3. EENMERIGEEVRQNMEKLREKQLS | 5.76
4. EENMERIIEEVRQLMEKLREKQLS | 3.62
5. EENMERIGEEVRQLTEKLREKQLS | 5.18

Now for the variant whose protein stability index we want.
[Q] Quick one: give measured protein stability index for EENMERITEEVRQLMEKLREKQLS
[A] 4.55

Where do the numbers come from? From the supplement of paper PMC10567573.
